Listing: Control of selected compounds
# system.under.test: Pyruvate dehydrogenase kinase (Rattus norvegicus) (UniProt Q63065+A6IPZ9+Q64536+O54937)
# test.name: In vivo percent of control lactate in 24 hr fasted rats at 100 umol/kg oral dose after 5 hours
# Type: functional, organism-based
A number alone suffices; assume %.

C[C@@](O)(C(=O)Nc1ccc(S(=O)(=O)NCCN2CCOCC2)cc1Cl)C(F)(F)F | 84

Next, consider the following compound.
Req: // returns reported Control for input "CC(C)CNS(=O)(=O)c1ccc(NC(=O)[C@@](C)(O)C(F)(F)F)c(Cl)c1"
Resp: 60

---

# test.name: Half-life after oral administration (100 uM/Kg)
# Format: ADME, organism-based
# experimental.setup: in vivo
value.kind: half-life (min)
Output spec: scalar in min, unitless text.

Req: Can you share its half-life? I mean this compound: CC(O)(C(=O)Nc1cccc(C(=O)O)c1Cl)C(F)(F)F (stereo unspecified)
Resp: 276

---

# system.under.test: Pyruvate dehydrogenase kinase (Homo sapiens) (UniProt Q15119+Q15120+Q16654+Q15118)
# test.name: In vitro inhibition of pyruvate dehydrogenase kinase (PDHK) in primary enzymatic assay; Inactive
# Type: protein assay
# experimental.setup: Sus scrofa
Activity calls are given as the source filed them. The calls are words filed in the database; no cut-off is given here.
value.kind: NA

CC(O)(C(=O)Nc1cc(C(=O)O)ccc1Cl)C(F)(F)F (stereo not drawn) | inactive
Cc1cccc(C)c1NC(=O)C(C)(O)C(F)(F)F (stereo not drawn) | inactive
COc1ccc(Cl)c(NC(=O)C(C)(O)C(F)(F)F)c1 (stereo not drawn) | inactive

---

# system.under.test: Pyruvate dehydrogenase kinase (Rattus norvegicus) (UniProt Q63065+A6IPZ9+Q64536+O54937)
# test.name: In vivo percent of control lactate in 24 hr fasted rats at 100 umol/kg oral dose
# Format: functional, organism-based
Below is a list of entries, each paired with its recorded Control value.
Field: numeric (%). Do not append units.

Look over these answered cases.
C[C@@](O)(C(=O)Nc1ccc(C(=O)NCCCCCC(=O)[O-])cc1Cl)C(F)(F)F.[Na+] | 94
C[C@@](O)(C(=O)Nc1ccc(C(=O)N2CCOCC2)cc1Cl)C(F)(F)F | 64
C[C@@](O)(C(=O)Nc1ccc(C(=O)NCCCO)cc1Cl)C(F)(F)F | 88
C[C@@](O)(C(=O)Nc1ccc(C(=O)N2CCN(c3ccccn3)CC2)cc1Cl)C(F)(F)F | 63

Field: next molecule
Req: Quick check: Control of "C[C@@](O)(C(=O)Nc1ccc(C(=O)N[C@@H](Cc2ccccc2)C(=O)[O-])cc1Cl)C(F)(F)F.[Na+]" ?
Resp: 115

---

# system.under.test: Pyruvate dehydrogenase kinase (Rattus norvegicus) (UniProt Q63065+A6IPZ9+Q64536+O54937)
# test.name: In vivo percent of control lactate in 24 hr fasted rats at 30 uM/kg oral dose
# Format: functional, organism-based
# experimental.setup: 30 umol/kg
Listing of recorded Control by entry.
Record the value in %, omitting the unit from your answer.

C[C@@](O)(C(=O)Nc1ccc(C(=O)N[C@@H](CCc2ccccc2)C(=O)O)cc1Cl)C(F)(F)F | 97

Req: What is its Control for Pyruvate dehydrogenase kinase (Rattus norvegicus) (UniProt Q63065+A6IPZ9+Q64536+O54937)? Entry: "CC(C)[C@@H](C(=O)[O-])N(C)C(=O)c1ccc(NC(=O)[C@@](C)(O)C(F)(F)F)c(Cl)c1.[Na+]"
Resp: 87

Req: Request: "CN(CCCO)C(=O)c1ccc(NC(=O)[C@@](C)(O)C(F)(F)F)c(Cl)c1"
Resp: 114

Req: Let us now turn to "C[C@@H](C(=O)[O-])N(C)C(=O)c1ccc(NC(=O)[C@@](C)(O)C(F)(F)F)c(Cl)c1.[Na+]"
Resp: 94

Req: Same question for "COC(=O)[C@H](Cc1c[nH]c2ccccc12)N(C)C(=O)c1ccc(NC(=O)[C@@](C)(O)C(F)(F)F)c(Cl)c1" please.
Resp: 102

Req: Moving on to the next molecule: "C[C@@](O)(C(=O)Nc1ccc(C(=O)N[C@@H](Cc2ccc(-c3ccccc3)cc2)C(=O)O)cc1Cl)C(F)(F)F"
Resp: 101

---

# test.name: Tmax after oral dosing of 100 uM/Kg
# Type: ADME, organism-based
# experimental.setup: in vivo
value.kind: Tmax (min)
State just the number; it will be interpreted in min.

Req: GET /values?readout=Tmax&item= CC(O)(C(=O)Nc1cccc(C(=O)O)c1Cl)C(F)(F)F (stereo unspecified)
Resp: 30

---

# system.under.test: Pyruvate dehydrogenase kinase (Rattus norvegicus) (UniProt Q63065+A6IPZ9+Q64536+O54937)
# test.name: In vivo percent of control lactate in 24 hr fasted rats at 100 umol/kg oral dose after 2.5 hours
# Assay type: functional, organism-based
Below is a list of entries, each paired with its recorded Control value.

Worked cases, Control given:
CC(C)CNS(=O)(=O)c1ccc(NC(=O)C(C)(C)O)c(Cl)c1 | 101%
C[C@@](O)(C(=O)Nc1ccc(S(=O)(=O)NCc2ccccn2)cc1Cl)C(F)(F)F | 64%
C=CCNS(=O)(=O)c1ccc(NC(=O)[C@@](C)(O)C(F)(F)F)c(Cl)c1 | 76%

Req: Consider the compound shown here: "CC(C)CNS(=O)(=O)c1ccc(NC(=O)[C@@](C)(O)C(F)(F)F)c(Cl)c1" What is its recorded Control?
Resp: 69%

Req: Would you mind doing C[C@@](O)(C(=O)Nc1ccc(S(=O)(=O)N2CCC(N)C2)cc1Cl)C(F)(F)F (stereo not given in full) as well?
Resp: 82%

---

# test.name: Cmax after oral dosing of 100 umol/Kg
# Assay type: ADME, organism-based
# Set-up: dose 100 umol/Kg, route oral
# experimental.setup: in vivo
value.kind: Cmax (µM)
Express the result in µM but write the number alone.

Req: Could you share which Cmax value was measured for CC(O)(C(=O)Nc1cccc(C(=O)O)c1Cl)C(F)(F)F (stereo unspecified) ?
Resp: 87.3

---

# test.name: Area Under Curve after oral dosing of 100 uM/Kg
# Assay type: ADME
value.kind: AUC (µM·h)
All answers are understood in µM·h, so give the number only.

Req: Query (molecule): CC(O)(C(=O)Nc1cccc(C(=O)O)c1Cl)C(F)(F)F (stereo unspecified) ; field requested: AUC
Resp: 143

---

# system.under.test: Pyruvate dehydrogenase kinase (Rattus norvegicus) (UniProt Q63065+A6IPZ9+Q64536+O54937)
# test.name: In vivo percent of control lactate in 24 hr fasted rats at 100 umol/kg oral dose after 5 hours
# Type: functional, organism-based
value.kind: Control (%)
Number in %, nothing else.

C[C@@](O)(C(=O)Nc1ccc(S(=O)(=O)NCCCN2CCCC2=O)cc1Cl)C(F)(F)F | 52
C=CCNS(=O)(=O)c1ccc(NC(=O)[C@@](C)(O)C(F)(F)F)c(Cl)c1 | 62
C[C@@](O)(C(=O)Nc1ccc(S(=O)(=O)N2CCC(N)C2)cc1Cl)C(F)(F)F (some centres not stated) | 70
C[C@@](O)(C(=O)Nc1ccc(S(=O)(=O)NCc2ccccn2)cc1Cl)C(F)(F)F | 84
CC(C)CNS(=O)(=O)c1ccc(NC(=O)C(C)(C)O)c(Cl)c1 | 95
C[C@@](O)(C(=O)Nc1ccc(S(=O)(=O)NCCc2ccc(F)cc2)cc1Cl)C(F)(F)F | 69

Here is another compound to look at.
Req: Value lookup for Control; key = "CCOCCCNS(=O)(=O)c1ccc(NC(=O)[C@@](C)(O)C(F)(F)F)c(Cl)c1"
Resp: 70
